For each record, write down the corresponding pIC50.
target: TEAD2 (Homo sapiens, UniProt Q15562); assay: biochemical
Sequence (Q15562 whole entry, species assumed): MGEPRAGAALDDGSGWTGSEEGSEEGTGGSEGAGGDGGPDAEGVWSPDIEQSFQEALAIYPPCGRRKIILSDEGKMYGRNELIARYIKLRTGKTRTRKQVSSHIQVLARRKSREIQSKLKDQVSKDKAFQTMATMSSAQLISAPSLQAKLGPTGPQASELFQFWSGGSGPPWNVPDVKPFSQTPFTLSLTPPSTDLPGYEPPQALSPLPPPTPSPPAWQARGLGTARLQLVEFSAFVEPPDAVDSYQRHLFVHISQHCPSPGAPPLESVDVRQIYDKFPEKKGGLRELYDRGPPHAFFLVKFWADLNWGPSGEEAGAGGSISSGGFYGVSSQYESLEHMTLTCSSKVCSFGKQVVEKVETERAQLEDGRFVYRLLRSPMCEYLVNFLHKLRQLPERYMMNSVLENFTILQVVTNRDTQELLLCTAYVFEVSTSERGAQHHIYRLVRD
Please keep in mind that pIC50 is minus log10 of the molar concentration; only the number is needed.

Q: Please give the measured pIC50 for this compound: C=CC(=O)NCc1cc(-c2ccc(C(F)(F)F)cc2)c2ncoc2c1[C@@H](O)CO (single isomer, unassigned)
Ans: 7.33

Q: Please give the measured pIC50 for this compound: C/C=C/S(=O)(=O)N1CC(c2nc(-c3ccc(OC(F)(F)F)cc3)c3ncn(C)c3n2)C1
Ans: 8.06

Q: Please give the measured pIC50 for this compound: C=CC(=O)N(C)Cc1cc(-c2ccc(OC(F)(F)F)cc2)c2c(c1C#N)CCO2
Ans: 8.06

Q: Please give the measured pIC50 for this compound: C=CC(=O)NCc1cc(-c2ccc(OC(F)(F)F)cc2)c2cccnc2c1CO
Ans: 7.80

Q: Please give the measured pIC50 for this compound: C=CC(=O)NCc1cc(-c2ccc(OC(F)(F)F)cc2)c2ncoc2c1[C@H]1CNC(=O)O1 (single isomer, unassigned)
Ans: 7.15

Q: Please give the measured pIC50 for this compound: C=CC(=O)NCc1cc(-c2ccc(OC(F)(F)F)cc2)c2c(c1[C@@H](O)[C@@H](C)O)CCO2 (single isomer, unassigned)
Ans: 7.54

Q: Please give the measured pIC50 for this compound: C=C(F)C(=O)N1CC(c2cc(-c3ccc(OC(F)(F)F)cc3)c3ncn(C)c3c2CO)C1
Ans: 7.43

Q: Please give the measured pIC50 for this compound: C=CC(=O)NCc1cc(-c2ccc(OC(F)(F)F)cc2)c2ncn(C)c2c1C(F)F
Ans: 8.40

Q: Please give the measured pIC50 for this compound: C=CC(=O)N(CC)Cc1nc(-c2ccc(OC(F)(F)F)cc2)c2ncsc2n1
Ans: 6.85

Q: Please give the measured pIC50 for this compound: C=CC(=O)NCc1cc(-c2ccc(OC(F)(F)F)nc2)c2ncoc2c1CO
Ans: 6.46

====

target: TEAD2 (Homo sapiens, UniProt Q15562); assay: biochemical;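 also: TR-FRET competition assay with His-tagged TEAD protein and a biotinylated lipid pocket probe, where probe displacement by compound lowers the signal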
For each record, write down the corresponding pIC50.
Please keep in mind that pIC50 is minus log10 of the molar concentration; only the number is needed.

Q: Please give the measured pIC50 for this compound: C=CC(=O)NCc1nc(-c2ccc(OC(F)(F)F)cc2)c2ccccc2n1 [Compound 7]
Ans: 6.19

Q: Please give the measured pIC50 for this compound: C=CC(=O)NCc1cc(-c2ccc(OC(F)(F)F)cc2)c2nccnc2c1CO [Compound 84]
Ans: 7.68

Q: Please give the measured pIC50 for this compound: C=CC(=O)NCc1cc(-c2ccc(OC(F)(F)F)cc2)c2nccnc2c1[C@@H](O)CO [Compound 28]
Ans: 7.82

Q: Please give the measured pIC50 for this compound: C=CC(=O)NCc1cc(-c2ccc(OC(F)(F)F)cc2)c2ncccc2c1[C@H](O)CO (single isomer, unassigned) [Compound 47]
Ans: 7.94

Q: Please give the measured pIC50 for this compound: C=CC(=O)N(C)Cc1cc(-c2ccc(OC(F)(F)F)cc2)c2ncoc2c1[C@H](O)CO (single isomer, unassigned) [Compound 107]
Ans: 7.70

Q: Please give the measured pIC50 for this compound: C=CC(=O)NCc1cc(-c2ccc(OC(F)(F)F)cc2)c2ncoc2c1[C@@H]1CNC(=O)O1 (single isomer, unassigned) [Compound 112]
Ans: 6.44

====

TEAD4 (Homo sapiens): recorded IC50 for assorted compounds
Sequence (Q15561 whole entry, species assumed): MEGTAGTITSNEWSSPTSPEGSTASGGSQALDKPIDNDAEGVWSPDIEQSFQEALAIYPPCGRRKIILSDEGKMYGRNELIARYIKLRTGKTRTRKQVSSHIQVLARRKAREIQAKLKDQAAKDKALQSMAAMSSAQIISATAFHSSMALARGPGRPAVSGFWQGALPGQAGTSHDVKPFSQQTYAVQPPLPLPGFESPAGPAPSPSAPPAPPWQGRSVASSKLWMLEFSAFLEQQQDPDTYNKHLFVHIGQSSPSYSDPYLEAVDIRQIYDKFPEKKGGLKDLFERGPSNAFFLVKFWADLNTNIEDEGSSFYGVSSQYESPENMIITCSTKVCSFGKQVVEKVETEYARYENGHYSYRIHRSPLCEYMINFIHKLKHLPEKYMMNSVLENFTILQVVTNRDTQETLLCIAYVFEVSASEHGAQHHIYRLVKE

Q: Please give the measured IC50 for this compound: C=CC(=O)NCc1nc(-c2ccc(OC(F)(F)F)cc2)c2ncn(C)c2c1CO
Ans: 39 nM

Q: Please give the measured IC50 for this compound: O=C(NCc1cc(-c2ccc(OC(F)(F)F)cc2)c2nccnc2c1[C@@H](O)CO)C1=CCC1
Ans: 13 nM

Q: Please give the measured IC50 for this compound: C=CC(=O)NCc1cc(-c2ccc(S(F)(F)(F)(F)F)cc2)c2c(c1[C@H](O)CO)CCO2 (stereo in doubt)
Ans: 23 nM

Q: Please give the measured IC50 for this compound: C=CC(=O)NCc1cc(-c2ccc(OC(F)(F)F)cc2)c2ncn(C)c2c1[C@@H](C)O (single isomer, unassigned)
Ans: 54 nM

Q: Please give the measured IC50 for this compound: O=C(C1=CCC1)N1CC(c2cc(-c3ccc(OC(F)(F)F)cc3)c3nccnc3c2[C@@H](O)CO)C1
Ans: 32 nM

Q: Please give the measured IC50 for this compound: C=CC(=O)NCc1cc(-c2ccc(OC(F)(F)F)cc2)c2cccnc2c1CO
Ans: 54 nM

Q: Please give the measured IC50 for this compound: C=CC(=O)NCc1cc(-c2ccc(OC(F)(F)F)cc2)c2ncn(C)c2c1Cc1cn[nH]c1
Ans: 62 nM

Q: Please give the measured IC50 for this compound: C=CC(=O)N1CC(c2nc(-c3ccc(OC(F)(F)F)cc3)c3ncn(C)c3n2)C1
Ans: 2 nM

Q: Please give the measured IC50 for this compound: C=CC(=O)N(C)Cc1nc(-c2ccc(OC(F)(F)F)cc2)c2ncsc2n1
Ans: 8.1 nM

Q: Please give the measured IC50 for this compound: C=CC(=O)NCc1cc(-c2ccc(OC(F)(F)F)cc2)c2c(c1[C@H](O)[C@H](C)O)CCO2 (single isomer, unassigned)
Ans: 150 nM

Q: Please give the measured IC50 for this compound: C=CC(=O)NCc1nc2c(c(-c3ccc(OC(F)(F)F)cc3)n1)OCC2
Ans: 35 nM

Q: Please give the measured IC50 for this compound: C=C(F)C(=O)N1CC(c2nc(-c3ccc(OC(F)(F)F)cc3)c3ncn(C(F)F)c3n2)C1
Ans: 24 nM

Q: Please give the measured IC50 for this compound: C=CC(=O)NCc1cc(-c2ccc(S(F)(F)(F)(F)F)cc2)c2c(c1[C@@H](O)CO)CCO2 (stereo in doubt)
Ans: 18 nM

Q: Please give the measured IC50 for this compound: C=CC(=O)NCc1cc(-c2ccc(OC(F)(F)F)cc2)c2nccn2c1
Ans: 82 nM

Q: Please give the measured IC50 for this compound: C=CC(=O)NCc1cc(-c2ccc(OC(F)(F)F)cc2)c2nccn2c1CO
Ans: 270 nM

Q: Please give the measured IC50 for this compound: C=CC(=O)NCc1cc(Oc2ccc(C(F)(F)F)cc2)c2ncccc2c1[C@@H](O)CO (single isomer, unassigned)
Ans: 540 nM

Q: Please give the measured IC50 for this compound: C=CC(=O)NCc1nc(-c2ccc(OC(F)(F)F)cc2)c2ncsc2n1
Ans: 11.9 nM

Q: Please give the measured IC50 for this compound: C=CC(=O)NCc1cc(-c2ccc(OC(F)(F)F)cc2)c2ncoc2c1[C@@H](O)CO (single isomer, unassigned)
Ans: 180 nM

Q: Please give the measured IC50 for this compound: C=C1CCN(Cc2nc(-c3ccc(OC(F)(F)F)cc3)c3ncn(C)c3n2)C1=O
Ans: 24.5 nM

Q: Please give the measured IC50 for this compound: C/C=C(\C)C(=O)N1CC(c2nc(-c3ccc(OC(F)(F)F)cc3)c3ncn(C)c3n2)C1
Ans: 220 nM

====

For each record, write down the corresponding pIC50.
Please keep in mind that pIC50 is minus log10 of the molar concentration; only the number is needed.

Q: What measured pIC50 is associated with C=CC(=O)NCc1cc(-c2ccc(OC(F)(F)F)cc2)c2nccnc2c1C#N on TEAD1 (Homo sapiens, UniProt P28347)?
Ans: 7.11

Q: What measured pIC50 is associated with C=CC(=O)NCc1cc(-c2ccc(OC(F)(F)F)cc2)c2ncn(C)c2c1[C@@H](C)O (single isomer, unassigned) on TEAD1 (Homo sapiens, UniProt P28347)?
Ans: 7.49

Q: What measured pIC50 is associated with C=C(F)C(=O)NCc1cc(-c2ccc(OC(F)(F)F)cc2)c2c(c1C#N)CCO2 on TEAD1 (Homo sapiens, UniProt P28347)?
Ans: 7.03

Q: What measured pIC50 is associated with C=CC(=O)NCc1cc(-c2ccc(OC(F)(F)F)cc2)c2ncccc2c1[C@H](O)CO (single isomer, unassigned) on TEAD1 (Homo sapiens, UniProt P28347)?
Ans: 7.66

Q: What measured pIC50 is associated with C=CC(=O)N(C)Cc1cc(-c2ccc(OC(F)(F)F)cc2)c2ncoc2c1[C@@H](O)CO (single isomer, unassigned) on TEAD1 (Homo sapiens, UniProt P28347)?
Ans: 6.89

Q: What measured pIC50 is associated with C=C(F)C(=O)NCc1cc(-c2ccc(OC(F)(F)F)cc2)c2ncn(C)c2c1CO on TEAD1 (Homo sapiens, UniProt P28347)?
Ans: 6.96

Q: What measured pIC50 is associated with C=CC(=O)NCc1nc2c(c(-c3ccc(OC(F)(F)F)cc3)n1)OCC2 on TEAD1 (Homo sapiens, UniProt P28347)?
Ans: 7.07

Q: What measured pIC50 is associated with C=C(F)C(=O)N1CC(c2cc(-c3ccc(OC(F)(F)F)cc3)c3ncn(C)c3c2)C1 on TEAD1 (Homo sapiens, UniProt P28347)?
Ans: 8.16

Q: What measured pIC50 is associated with C=CC(=O)NCc1cc(-c2ccc(OC(F)(F)F)cc2)c2c(c1[C@@H](O)[C@@H](C)O)CCO2 (single isomer, unassigned) on TEAD1 (Homo sapiens, UniProt P28347)?
Ans: 6.77

Q: What measured pIC50 is associated with C=CC(=O)NCc1cc(-c2ccc(OC(F)(F)F)cc2)c2ncccc2c1CO on TEAD1 (Homo sapiens, UniProt P28347)?
Ans: 7.92

Q: What measured pIC50 is associated with C=C(F)C(=O)N1CC(c2cc(-c3ccc(OC(F)(F)F)cc3)c3ncn(C)c3c2CO)C1 on TEAD1 (Homo sapiens, UniProt P28347)?
Ans: 7.74

Q: What measured pIC50 is associated with C=CC(=O)NCc1cc(-c2ccc(OC(F)(F)F)cc2)c2ncoc2c1[C@H]1CNC(=O)O1 (single isomer, unassigned) on TEAD1 (Homo sapiens, UniProt P28347)?
Ans: 6.80
